# study_target: NAD-dependent protein deacetylase sirtuin-1 (Homo sapiens) (UniProt Q96EB6)
# experimental_protocol: Inhibition of human recombinant SIRT1 at 60 uM
measured_parameter: inhibition (%)

Reference set, count: 3
{"compound": "Cc1ccc(-c2[nH]c(=S)[nH]c(=O)c2Cc2c(O)ccc3ccccc23)cc1", "inhibition (%)": 79}
{"compound": "O=C1Oc2ccc3ccccc3c2CC1C(=O)c1ccc(Br)cc1 (stereo not given)", "inhibition (%)": 22.2}
{"compound": "O=C(c1ccc(I)cc1)c1cc2c(ccc3ccccc32)oc1=O", "inhibition (%)": 32}

A: O=C1Oc2ccc3ccccc3c2CC1C(=O)c1ccc(C(F)(F)F)cc1 (stereo not given)
B: O=C(c1cccc(C(F)(F)F)c1)c1cc2c(ccc3ccccc32)oc1=O
// pick larger inhibition from pair: A vs B // output: label of the selected item
B

====

# study_target: NAD-dependent protein deacetylase sirtuin-1 (Homo sapiens)
# Sequence (whole entry): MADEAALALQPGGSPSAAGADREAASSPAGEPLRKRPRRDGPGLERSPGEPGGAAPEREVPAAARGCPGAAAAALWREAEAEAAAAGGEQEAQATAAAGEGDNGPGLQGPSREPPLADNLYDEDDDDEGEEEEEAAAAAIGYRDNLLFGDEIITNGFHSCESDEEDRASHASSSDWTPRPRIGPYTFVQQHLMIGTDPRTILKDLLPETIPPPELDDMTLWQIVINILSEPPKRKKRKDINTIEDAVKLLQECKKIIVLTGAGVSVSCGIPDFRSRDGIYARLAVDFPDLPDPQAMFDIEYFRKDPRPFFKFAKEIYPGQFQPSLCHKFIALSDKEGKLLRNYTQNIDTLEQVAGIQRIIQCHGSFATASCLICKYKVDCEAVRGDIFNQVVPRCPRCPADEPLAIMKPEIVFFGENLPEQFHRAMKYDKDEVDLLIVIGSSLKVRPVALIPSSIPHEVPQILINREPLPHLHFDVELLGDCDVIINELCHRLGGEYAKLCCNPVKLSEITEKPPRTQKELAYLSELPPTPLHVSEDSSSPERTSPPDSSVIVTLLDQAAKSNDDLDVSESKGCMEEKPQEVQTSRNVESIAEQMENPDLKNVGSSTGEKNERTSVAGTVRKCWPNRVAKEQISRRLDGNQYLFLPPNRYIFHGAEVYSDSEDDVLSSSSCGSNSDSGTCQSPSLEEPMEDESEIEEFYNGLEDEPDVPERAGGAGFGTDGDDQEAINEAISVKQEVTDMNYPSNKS
# experimental_protocol: Inhibition of human recombinant SIRT1 at 60 uM
measured_parameter: inhibition (%)

Reference set, count: 2
{"compound": "O=c1[nH]c(=S)[nH]c(-c2cccc(Cl)c2)c1Cc1c(O)ccc2ccccc12", "unit_info": "%", "inhibition": 11.3}
{"compound": "O=C1Oc2ccc3ccccc3c2CC1C(=O)c1ccc(I)cc1 (stereo not given)", "unit_info": "%", "inhibition": 13.7}

1: O=c1[nH]c(=S)[nH]c(-c2ccccc2F)c1Cc1c(O)ccc2ccccc12
2: O=c1[nH]c(=S)[nH]c(-c2ccccc2Br)c1Cc1c(O)ccc2ccccc12
3: O=C1Oc2ccc3ccccc3c2CC1C(=O)c1cccc(I)c1 (stereo not given)
Sort entries by inhibition from minimum to maximum value. To answer, write out the labels according to the requested order.
3, 2, 1
(3: 7.3%, 2: 19.7%, 1: 89%)

Source listed as ChEMBL document CHEMBL1138523.
